Target: 5-LOX (Homo sapiens, UniProt P09917)
Assay: 5-LOX product formation in activated PMNL
Details: read-out: 5-LOX PMNL IC50; 5-LOX product formation in activated PMNL; mean ± SEM
MEASURED METRIC: pIC50
Notebook: values listed as pIC50 are -log10 of the concentration (mol/L).

COMPOUND	QUANTITATIVE READOUT
CC(=O)c1cc2c3c(c(C)cc2oc1=O)O[C@](C)(CC/C=C(\C)CC/C=C(\C)CCC=C(CO)CO)CC3	5.84
C/C(=C\CC/C(C)=C/CC[C@]1(C)CCc2c(CN(C)C)c(O)cc(C)c2O1)CC/C=C(\C)C(=O)O	5.69

Task: Name the reported pIC50 value associated with the compound C/C(=C\CC[C@]1(C)CCc2c(C)c(O)c(C)c(C)c2O1)CC/C=C(\C)CCC(=O)O [Compound 15a]
Output: 6.35

----------
Assay: Concentrations and metabolism of compound in mice with zymosan-induced peritonitis
Type: in vivo
Conditions: CD-1, mouse, plasma, po; mice with acute peritonitis, 10 mg/kg p.o., 90 min post administration
MEASURED METRIC: concentration at 90 min

Task: Name the reported concentration at 90 min value associated with the compound C/C(=C\CC/C(C)=C/CC[C@]1(C)CCc2c(C)c(O)c(C)c(C)c2O1)CCC=C(CO)CO [Compound 27a, α-amplexichromanol]
Output: 30 to 900 nM

----------
Target: 5-LOX (Homo sapiens, UniProt P09917)
Assay: Cell-free 5-LOX activity (isolated human recombinant enzyme)
Details: read-out: 5-LOX enzyme residual activity at 1 μM
MEASURED METRIC: remaining activity at 1 µM (%)
Write the answer as a number in %, unit excluded.

Example cases with answers are listed next.
COMPOUND	remaining activity at 1 µM, %
C/C(=C\CC/C(C)=C/CC[C@]1(C)CCc2c(CN(C)C)c(O)cc(C)c2O1)CCC=C(CO)CO [Compound 36]	3.7
C/C(=C\CC/C(C)=C/CC[C@]1(C)CCc2c(C)c(O)c(C=O)c(C)c2O1)CCC=C(CO)CO [Compound 33]	8.9
C/C(=C\CC[C@]1(C)CCc2cc(O)cc(C)c2O1)C(=O)O [Compound 18]	56.4
C/C(=C\CC/C(C)=C/CC[C@]1(C)CCc2cc(O)c(C)c(C)c2O1)CC/C=C(\C)C(=O)O [Compound 13c]	4.1
Cc1c(C)c2c(c(C)c1O)CC[C@@](C)(CCCC(C)CCCC(C)CCCC(C)C(=O)O)O2 (stereo partly drawn) [Compound 12a, α-T-13′-COOH]	0.8
C/C(=C\CC[C@]1(C)CCc2cc(O)cc(C)c2O1)CC/C=C(\C)CCC(=O)O [Compound 15b]	28.8

Task: Name the reported remaining activity at 1 µM value associated with the compound CCOC(=O)c1cc2c3c(c(C)cc2oc1=O)O[C@](C)(CC/C=C(\C)CC/C=C(\C)CCC=C(CO)CO)CC3 [Compound 43]
Output: 29.3

Task: Name the reported remaining activity at 1 µM value associated with the compound C/C(=C\CC/C(C)=C/CC[C@]1(C)CCc2c(C=O)c(O)cc(C)c2O1)CCC=C(CO)CO [Compound 34]
Output: 13.8

Task: Name the reported remaining activity at 1 µM value associated with the compound C/C(=C\CC/C(C)=C/CC[C@]1(C)CCc2c(CO)c(O)cc(C)c2O1)CCC=C1COC(c2ccc([N+](=O)[O-])cc2)OC1 (stereo partly drawn) [Compound 48]
Output: 14

----------
Target: 5-LOX (Homo sapiens, UniProt P09917)
Experiment: 5-LOX product formation in activated PMNL;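 note: freshly isolated human PMNL in PBS pH 7.4 plus glucose, preincubated 10 min at 37 °C with compound, 5-LOX products (all-trans LTB4 isomers, 5-HETE) quantified by RP-HPLC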
Details: PMNL, read-out: 5-LOX PMNL residual activity at 3 µM (Table S1)
remaining activity at 3 µM strictly less than 80% = Satisfied. Otherwise Not satisfied.

MOLECULE	ASSIGNED CATEGORY
CC(C)=CCC/C(C)=C/CC/C(C)=C/CC[C@]1(C)CCc2cc(O)c(C)c(C)c2O1 [Compound 6c]	Satisfied
CC(C)=CCC/C(C)=C/CC/C(C)=C/CC[C@]1(C)CCc2c(C=O)c(O)cc(C)c2O1 [Compound 7]	Not satisfied
C/C(=C\CC/C(C)=C/CC/C(C)=C/CC[C@]1(C)CCc2c(C)c(O)c(C)c(C)c2O1)CO [Compound 10a]	Satisfied

Task: Please indicate whether the reported remaining activity at 3 µM of CC(C)=CCC/C(C)=C/CC/C(C)=C/CC[C@]1(C)CCc2c(C)c(O)c(C)c(C)c2O1 [Compound 6a] is strictly below 80%.
Output: Satisfied

Task: Please indicate whether the reported remaining activity at 3 µM of C/C(=C/CC/C(C)=C/CC/C(C)=C/CC[C@]1(C)CCc2cc(O)cc(C)c2O1)CO [Compound 10e, δ-(Z)-deoxyamplexichromanol] is strictly below 80%.
Output: Satisfied

Task: Please indicate whether the reported remaining activity at 3 µM of CC(C)=CCC/C(C)=C/CC/C(C)=C/CC[C@]1(C)CCc2cc(O)cc(C)c2O1 [Compound 6d, δ-tocotrienol] is strictly below 80%.
Output: Satisfied

Task: Please indicate whether the reported remaining activity at 3 µM of Cc1c(C=O)c(O)c(Cl)c2c1O[C@](C)(CCC[C@H](C)CCC[C@H](C)CCCC(C)C)CC2 [Compound 2] is strictly below 80%.
Output: Not satisfied

Task: Please indicate whether the reported remaining activity at 3 µM of Cc1cc(O)cc2c1O[C@](C)(CCCC(C)CCCC(C)CCCC(C)CO)CC2 (stereo partly drawn) [Compound 9b] is strictly below 80%.
Output: Satisfied

----------
Here the recorded pIC50 is given for each entry.
Target: 5-LOX (Homo sapiens)
Test: 5-LOX product formation in activated PMNL
pIC50: −log10 of the molar value.

COMPOUND	TARGET UNDER TEST	pIC50
CC(C)=CCC/C(C)=C/CC/C(C)=C/CC[C@]1(C)CCc2c(C=O)c(O)c(Br)c(C)c2O1 [Compound 8]	5-LOX (Homo sapiens)	< 5.52
COCOc1cc(C)c2c(c1C=O)CC[C@@](C)(CCC[C@H](C)CCC[C@H](C)CCCC(C)C)O2 [Compound 4]	5-LOX (Homo sapiens)	< 5.52

Task: Name the reported pIC50 value associated with the compound Cc1cc(O)c(C(=O)O)c2c1O[C@](C)(CCC[C@H](C)CCC[C@H](C)CCCC(C)C)CC2 [Compound 5]
Output: < 5.52

----------
Target: 5-LOX (Homo sapiens, UniProt P09917)
Assay: Cell-free 5-LOX activity (isolated human recombinant enzyme)
MEASURED METRIC: IC50

Example cases with answers are listed next.
Cc1c(C=O)c(O)c(Cl)c2c1O[C@](C)(CCC[C@H](C)CCC[C@H](C)CCCC(C)C)CC2 > 1000 nM
CC(C)=CCC/C(C)=C/CC/C(C)=C/CC[C@]1(C)CCc2c(C=O)c(O)cc(C)c2O1 > 1000 nM

Task: Name the reported IC50 value associated with the molecule CC(C)=CCC/C(C)=C/CC/C(C)=C/CC[C@]1(C)CCc2c(C=O)c(O)c(Br)c(C)c2O1
Output: > 1000 nM

----------
Target: 5-LOX (Homo sapiens)
Sequence (P09917 1-674): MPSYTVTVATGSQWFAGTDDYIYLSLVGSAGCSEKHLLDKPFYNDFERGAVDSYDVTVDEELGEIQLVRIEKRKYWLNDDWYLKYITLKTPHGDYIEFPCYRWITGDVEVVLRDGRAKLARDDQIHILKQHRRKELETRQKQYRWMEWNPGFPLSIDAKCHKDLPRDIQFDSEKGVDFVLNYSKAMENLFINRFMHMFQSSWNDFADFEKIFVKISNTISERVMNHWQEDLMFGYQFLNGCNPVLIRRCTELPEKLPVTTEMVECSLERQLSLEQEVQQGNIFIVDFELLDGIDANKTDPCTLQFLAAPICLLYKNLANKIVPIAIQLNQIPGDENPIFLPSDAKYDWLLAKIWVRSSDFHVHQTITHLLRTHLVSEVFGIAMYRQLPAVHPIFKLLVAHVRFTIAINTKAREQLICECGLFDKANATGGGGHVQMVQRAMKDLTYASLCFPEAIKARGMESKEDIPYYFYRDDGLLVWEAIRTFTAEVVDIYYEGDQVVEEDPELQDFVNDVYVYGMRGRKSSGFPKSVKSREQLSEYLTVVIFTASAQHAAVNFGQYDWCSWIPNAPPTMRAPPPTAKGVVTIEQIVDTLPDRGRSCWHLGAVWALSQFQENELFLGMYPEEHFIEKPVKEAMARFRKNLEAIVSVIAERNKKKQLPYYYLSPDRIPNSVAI
Test: 5-LOX product formation in activated PMNL
Conditions: PMNL, read-out: 5-LOX PMNL residual activity at 3 µM (Table S1)
MEASURED METRIC: remaining activity at 3 µM

Example cases with answers are listed next.
Cc1c(O)cc2c(c1C)O[C@](C)(CCC[C@H](C)CCC[C@H](C)CCCC(C)C)CC2 78.5%
Cc1cc(O)c(C(=O)O)c2c1O[C@](C)(CCC[C@H](C)CCC[C@H](C)CCCC(C)C)CC2 80.8%
Cc1cc(O)c(C)c2c1O[C@](C)(CCC[C@H](C)CCC[C@H](C)CCCC(C)C)CC2 79.6%

--- query ---
Task: Name the reported remaining activity at 3 µM value associated with the compound CC(C)=CCC/C(C)=C/CC/C(C)=C/CC[C@]1(C)CCc2c(C=O)c(O)c(Br)c(C)c2O1
Output: 79.2%
